Listed below: pIC50 values for each entry.
System: L. amazonensis LV78 amastigotes
assay_notes: Anti-amastigote activity in infected PEM, L. amazonensis LV78
Format: cell-based
conditions_used: Leishmania amazonensis, 72 h; infected PEM, 3 days, Giemsa
pIC50: −log10 of the molar value.

molecule | pIC50
CS(=O)(=O)NCCOCCOc1ccc(-c2cc(=O)c3ccccc3o2)cc1 | < 5.00
O=c1cc(-c2ccc(OCCOCCN(Cc3ncccn3)Cc3ncccn3)cc2)oc2ccccc12 [FM09d] | < 5.00
O=C(COc1ccc(-c2cc(=O)c3ccccc3o2)cc1)N1CCCN(Cc2ccncc2)CC1 | < 5.05

###

Test system: L. amazonensis LV78 promastigotes
assay_notes: Anti-promastigote activity (MTS assay), L. amazonensis LV78
Assay type: cell-based
conditions_used: Leishmania amazonensis, 72 hours
pIC50: −log10 of the molar value.
Listed below: pIC50 values for each entry.
readout_kind: pIC50

compound | bound_type | value
CN(C)CCOCCOc1ccc(-c2cc(=O)c3ccccc3o2)cc1 | = | 5.70
O=c1cc(-c2ccc(OCCOCCN(Cc3ncccc3F)Cc3ncccc3F)cc2)oc2ccccc12 [FM09c] | = | 5.50
O=c1cc(-c2ccc(OCCOCCNCc3ccncc3)cc2)oc2ccccc12 | = | 5.08
O=c1cc(-c2ccc(OCCOCCN(Cc3ncccn3)Cc3ncccn3)cc2)oc2ccccc12 [FM09d] | = | 4.45
COCCCOc1ccnc(CN(CCOCCOc2ccc(-c3cc(=O)c4ccccc4o3)cc2)Cc2nccc(OCCCOC)c2C)c1C [FM09k] | = | 6.80
O=C(COc1ccc(-c2cc(=O)c3ccccc3o2)cc1)N1CCN(Cc2ccncc2)CC1 | < | 4.00
N=C(N)c1ccc(OCCCCCOc2ccc(C(=N)N)cc2)cc1 | = | 4.80
O=c1cc(-c2ccc(OCCOCCN(Cc3ccccn3)Cc3ccccn3)cc2)oc2ccccc12 | = | 6.00
